TGT: mouse melanocortin-5 receptor (mouse, UniProt P41149 1-325)
Sequence (P41149 whole entry): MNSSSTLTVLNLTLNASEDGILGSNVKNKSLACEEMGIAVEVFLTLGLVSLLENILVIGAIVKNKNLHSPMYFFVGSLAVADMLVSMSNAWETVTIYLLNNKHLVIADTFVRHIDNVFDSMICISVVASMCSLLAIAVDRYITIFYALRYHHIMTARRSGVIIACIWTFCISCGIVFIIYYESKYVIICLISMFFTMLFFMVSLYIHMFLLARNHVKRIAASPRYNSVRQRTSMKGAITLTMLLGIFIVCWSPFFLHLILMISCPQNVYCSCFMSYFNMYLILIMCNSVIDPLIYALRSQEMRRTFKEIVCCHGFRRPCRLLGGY
TEST SUMMARY: cell-based or functional assay
Square brackets hold non-standard residues; d marks the D form.
Reported values of inverse agonist, % change from basal cAMP at 100 µM for individual entries
Please respond with the number in % and leave the unit unwritten.

Illustrative cases are given below, each with its answer.
# BINDER, RESULT VALUE
data = [
    ("cyclo(PRFFDAF[dP]) [c[Pro-Arg-Phe-Phe-Asp-Ala-Phe-DPro]]", -25),
    ("cyclo(PRFFNSF[dP]) (SMILES N=C(N)NCCC[C@@H]1NC(=O)[C@@H]2CCCN2C(=O)[C@H]2CCCN2C(=O)[C@H](Cc2ccccc2)NC(=O)[C@H](CO)NC(=O)[C@H](CC(N)=O)NC(=O)[C@H](Cc2ccccc2)NC(=O)[C@H](Cc2ccccc2)NC1=O) [c[Pro-Arg-Phe-Phe-Asn-Ser-Phe-DPro]]", -30),
]

Request: Query: inverse agonist, % change from basal cAMP at 100 µM; subject: cyclo(PRFFNGF[dP]) (SMILES N=C(N)NCCC[C@@H]1NC(=O)[C@@H]2CCCN2C(=O)[C@H]2CCCN2C(=O)[C@H](Cc2ccccc2)NC(=O)CNC(=O)[C@H](CC(N)=O)NC(=O)[C@H](Cc2ccccc2)NC(=O)[C@H](Cc2ccccc2)NC1=O) [c[Pro-Arg-Phe-Phe-Asn-Gly-Phe-DPro]]
Response: -35
